system: P. aeruginosa No. 12; experiment: In vitro antibacterial activity, twofold agar-dilution method; assay type: cell-based; settings: Pseudomonas aeruginosa; P. aeruginosa No. 12 (Gram -); Mueller-Hinton agar, 20 h, 37° C.; calculated for free base; read-out: minimum inhibitory concentration (MIC)
quantity-name: MIC (µg/mL)
Numbers only; they are read as µg/mL.

Consider the worked cases shown below.
{"columns": ["molecule", "MIC (µg/mL)"],
 "data": [
  ["Nc1c(F)c(N2CCNCC2)c(F)c2c1c(=O)c(C(=O)O)cn2C1CC1 [Compound 3]", 0.2],
  ["CC1CN(c2c(F)c(N)c3c(=O)c(C(=O)O)cn(C4CC4)c3c2F)CC(C)N1 (stereo not shown) [Compound 2]", 0.2],
  ["Nc1c(F)c(N2CCNC(CF)C2)c(F)c2c1c(=O)c(C(=O)O)cn2C1CC1 (stereo not shown) [Compound 6]", 0.2],
  ["CC1CN(c2c(F)c(N)c3c(=O)c(C(=O)O)cn(C4CC4)c3c2F)CCN1 (stereo not shown) [Compound 1]", 0.1],
  ["CCn1cc(C(=O)O)c(=O)c2c(N)c(F)c(N3CCNCC3)c(F)c21 [Compound A, reference compound]", 0.78],
  ["CN1CCN(c2c(F)c(N)c3c(=O)c(C(=O)O)cn(C4CC4)c3c2F)CC1 [Compound 4]", 0.2]
]}

Below: the item to evaluate.
Recorded MIC of CCN1CCN(c2c(F)c(N)c3c(=O)c(C(=O)O)cn(C4CC4)c3c2F)CC1 [Compound 5] , please.
0.39
